Values compiled from the supplement of paper PMC10567573.

B1: ALDH8A1 (parent)
chain: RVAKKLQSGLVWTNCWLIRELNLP

Variants of: B1
test-method-notes: protein stability index of a GFP-peptide fusion (GPS, HEK-293T) (PSI 1-6); higher = more stable;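 note: lentivirally expressed fusions sorted by FACS into six bins by GFP to DsRed ratio, PSI derived from sequencing read proportions per bin multiplied by bin number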
test-parameters: c terminus: a fixed tail appended
fulfilled means recorded protein stability index is 2 or above; not fulfilled means it is below 2.

# variant-id, group
data = [
    ("R19L", "fulfilled"),
    ("R1K", "fulfilled"),
    ("N14V", "not fulfilled"),
    ("W16P", "not fulfilled"),
    ("N14K", "fulfilled"),
    ("N14L", "fulfilled"),
    ("V2H", "fulfilled"),
    ("Q7M", "not fulfilled"),
    ("K4N", "fulfilled"),
    ("W16D", "not fulfilled"),
    ("K4M", "fulfilled"),
    ("K4F", "fulfilled"),
    ("W12V", "not fulfilled"),
    ("E20P", "fulfilled"),
    ("L17I", "not fulfilled"),
    ("K4W", "fulfilled"),
    ("Q7W", "fulfilled"),
    ("I18N", "fulfilled"),
    ("N14Y", "not fulfilled"),
    ("L6K", "fulfilled"),
    ("C15L", "fulfilled"),
]
